- System: HCT-116 colon
- runDescription: NCI-60 one-dose screen, 48 h (100 = growth as untreated, 0 = no growth, -100 = all killed)
- testParameters: 10 µM unless noted
About 83,000 compounds went through this panel and 20% of them were active in at least one assay; those are over-represented in the sample as a whole.
Below, each entry is listed with its recorded growth.
I only need the number, in %, no unit after it.

Consider the following illustrative entries.
1. Cc1c(C(=N)C(C#N)C#N)c(=N)oc2c1ccc1ccccc12 : 79.6
2. COc1ccc(-c2ccc(C)n2-c2ccc(-c3nc4ccccc4s3)cc2)cc1 : 85.5

Lab note: record growth of O=S1(=O)CCC(N(/N=C/c2ccco2)c2ccccc2)C1 (stereo not drawn) tested on HCT-116 colon.
97.4

====

- System: RXF 393 renal
- runDescription: NCI-60 one-dose screen, 48 h (100 = growth as untreated, 0 = no growth, -100 = all killed)
- testParameters: 10 µM unless noted
This is part of a sample that, as a whole, favours compounds with a hit. Of some 83,000 tested, about 20% had one in any assay.
Below, each entry is listed with its recorded growth.
I only need the number, in %, no unit after it.

Consider the following illustrative entries.
1. C=C1CCC2C3(C)COC(c4ccc(N(C)C)cc4)OC3CCC2(C)C1C/C=C1/C(=O)OCC1O (stereo not given) : 1.3
2. COc1cccc(-c2cc3c(O)cc(C#N)cc3[nH]2)c1 : 112
3. O=S(=O)(NCCNc1nccc(-c2c(-c3ccc(O)cc3)nc3sccn23)n1)c1cccc2ccccc12 : 104
4. O=[N+]([O-])c1ccc(OCCCOc2ccccc2)cc1 : 116
5. COc1ccc(/C=N\NC(=O)CN2CCN(c3cc4c(cc3F)c(=O)c(C(=O)N/N=C/c3ccc(OC)c(OC)c3)cn4C3CC3)CC2)cc1OC : 61.1

Name the recorded growth of the compound listed here: CC(C)(C)n1cc(-c2ccnc(NCCCNS(=O)(=O)c3ccc(F)cc3)c2)c(-c2cccc(O)c2)n1
38.7

Name the recorded growth of the compound listed here: COc1cc([N+](=O)[O-])c2ncccc2c1O
93.3

Name the recorded growth of the compound listed here: CN(C)CCCC(C#N)c1ccccc1 (stereo not given)
115

Name the recorded growth of the compound listed here: CC(C)(C)n1cc(-c2ccnc(NCCNS(=O)(=O)c3ccc(C(F)(F)F)cc3)c2)c(-c2cccc(O)c2)n1
37

Name the recorded growth of the compound listed here: C=C(C)[C@@H]1CC[C@]2(C(=O)O)CC[C@]3(C)[C@H](CC[C@@H]4[C@@]5(C)C[C@@H](CC#Cc6ccc(C(F)(F)F)cc6)[C@H](O)C(C)(C)[C@@H]5CC[C@]43C)[C@@H]12
-34.4

====

- Test system: UACC-257 melanoma
- runDescription: NCI-60 one-dose screen, 48 h (100 = growth as untreated, 0 = no growth, -100 = all killed)
- testParameters: 10 µM unless noted
Compounds without any hit were thinned out: in the full panel of roughly 83,000, 20% have a hit.
Below, each entry is listed with its recorded growth.
I only need the number, in %, no unit after it.

Consider the following illustrative entries.
1. Cc1ccc(CSC(=N)N)cc1C : 119
2. CC(C)(C)n1cc(-c2ccnc(NCCCNS(=O)(=O)c3ccccc3)c2)c(-c2cccc(O)c2)n1 : 47.2
3. COc1ccc2[nH]c(C(=O)OCc3ccc4c(Cl)cc(Cl)c(O)c4n3)cc2c1 : -77.3

Name the recorded growth of the molecule listed here: O=C1NN(C(=O)c2ccc(Cl)cc2)C(c2ccccc2)=N/C1=C\c1cn(-c2ccccc2)nc1-c1ccccc1
92.8
